Tested on: Calu-3
Assay: cell viability relative to DMSO; higher = less toxic
Conditions: 72 h; 1000 nM
cell viability reference
measurementKind: cell viability

CN[C@@H](C)C(=O)N[C@H](C(=O)N1CCC[C@H]1C(=O)N[C@H]1c2ccccc2C[C@H]1OCC#CC#CCO[C@@H]1Cc2ccccc2[C@@H]1NC(=O)[C@@H]1CCCN1C(=O)[C@@H](NC(=O)[C@H](C)NC)C1CCCCC1)C1CCCCC1; 73.2%
O=C(CCBr)N1CC[N+]2(CC1)CC[N+]1(CCN(C(=O)CCBr)CC1)CC2; 110%
c1cc(-c2cnn3cc(-c4ccc(OCCN5CCCCC5)cc4)cnc23)ccn1; 98.9%
CC(OC(=O)OC1CCCCC1)OC(=O)C1=C(CSc2nnnn2CCN(C)C)CS[C@@H]2[C@H](NC(=O)Cc3csc(N)n3)C(=O)N12 (stereo not given in full); 96.9%
COC1=CC(=O)C[C@@H](C)[C@]12Oc1c(Cl)c(OC)cc(OC)c1C2=O; 107%
O=C1c2ccccc2C(=O)C1c1ccccc1; 95.2%
O=C(NCCN1CCC2(CC1)C(=O)NCN2c1cccc(F)c1)c1ccc2ccccc2c1; 95%
N[C@@H]1CONC1=O; 105%
CC(C)(C)c1ccc(-c2nc3c(N4CCN(Cc5ccc6nccnc6c5)CC4)cccc3[nH]2)cc1; 106%
Cc1ccc(Cl)c(Nc2ccccc2C(=O)O)c1Cl; 109%

====

Reported cell viability is given for each of the following molecules.
System: U2OS
Assay: cell viability relative to DMSO; higher = less toxic
Settings: 72 h; 10000 nM
measurementKind: cell viability

O=C(c1ccc(Nc2nccc(-c3cc4ccccc4s3)n2)cc1)N1CCC(N2CCCC2)CC1; 0.8%
Cc1noc2c1-c1ccccc1C(c1ccc(Cl)cc1)=N[C@H]2CC(N)=O; 47.6%
S=C=Nc1cccc(NC(=S)NCCCCNC(=S)Nc2cccc(N=C=S)c2)c1; 104%
Cc1ncc(CO)c(C=O)c1O; 99.9%
Cc1cccc(N(C)C(=S)Oc2ccc3ccccc3c2)c1 [tolnaftate]; 93.3%
COc1ccc(-c2ccc(=N)n(CCCC(=O)O)n2)cc1; 103%
O=C(c1c2ccccc2cc2ccccc12)N1CCC(N2CCC[C@@H](C(=O)N3CCOCC3)C2)CC1; 101%
Cc1cc(C)c(S(=O)(=O)Nc2ccccc2C(F)(F)F)c(C)c1; 96.5%
N[C@H]1C[C@@H]1c1ccccc1 (racemic); 103%
COc1c(C)c2c(c(O)c1C/C=C(\C)CCC(=O)O)C(=O)OC2; 21.9%

====

Test system: HepG2
Experiment: cell viability relative to DMSO; higher = less toxic
Conditions: 72 h; 1000 nM
Counter-ions that a name gives are not always drawn.
Measured cell viability by item
measurementKind: cell viability (%)

Cn1cc(C(F)(F)F)nc1-c1ccc(OCC(O)CNCCOc2ccc(O)c(C(N)=O)c2)cc1 (centres undefined); 94.3
COc1cccc(C2(O)CCCCC2CN(C)C)c1 (centres undefined) [TRAMADOL HYDROCHLORIDE]; 89.8
C[C@@H](N)Cc1c[nH]c2ccc(O)cc12; 96.9
CCC(CC)O[C@@H]1C=C(C(=O)O)C[C@H](N)[C@H]1NC(C)=O [oseltamivir-carboxylate]; 95.5
Cc1ccccc1C(OCCN(C)C)c1ccccc1 (centres undefined); 105
Clc1ccc2c(c1)N=C(N1CCNCC1)c1ccccc1N2; 104
CCCCc1nc2cc(/C=C/C(=O)NO)ccc2n1CCN(CC)CC; 15.7
COC(=O)CN1CN(c2ccccc2)C2(CCN(Cc3cccc4ccccc34)CC2)C1=O; 95
Nc1nc2c(ccc3ccccc32)s1; 110

====

Test system: U2OS
Assay: cell viability relative to DMSO; higher = less toxic
Conditions: 72 h; 10 nM
measurementKind: cell viability (%)

COc1ccc(OC)c(CN(C(C)=O)c2cc(F)ccc2Oc2ccccc2)c1; 107
CC1(C)S[C@@H]2[C@H](NC(=O)[C@H](C(=O)O)c3ccsc3)C(=O)N2[C@H]1C(=O)O; 100
N=C(N)c1ccc(/C=C/c2ccc(C(=N)N)cc2O)cc1 [hydroxystilbamidine]; 95.6
C(=C\c1ccccc1)/CN1CCN(CCOC(c2ccccc2)c2ccccc2)CC1; 95.5
CNC(=O)c1ccc(Nc2ncc(C(F)(F)F)c(NCc3nccnc3N(C)S(C)(=O)=O)n2)cc1; 100
Cc1ccc(C(=O)Nc2ccc(Oc3cc4cnn(C)c4cc3-c3cn[nH]c3)c(F)c2)c(=O)n1-c1ccc(F)cc1; 95.5
Oc1cccc(Nc2ccc(Nc3cccc(O)c3)nn2)c1 [beta-amyloid-synthesis-inhibitor]; 97.1
O=C1c2ccccc2C(=O)C1c1ccccc1; 97.9
O=C(O)[C@@H]1C[C@@H](O)CN1 [L-hydroxyproline]; 102
CN(C(=O)CN(CCO)CC(=O)N(C)C(C)(C)Cc1ccccc1)C(C)(C)Cc1ccccc1; 97.5
O=C(O)C1=CCCNC1; 98.9
O=C(Nc1cccc(Nc2ncc(Br)c(NCCc3cnc[nH]3)n2)c1)N1CCCC1; 93.2
S=C=Nc1cccc(NC(=S)NCCCCNC(=S)Nc2cccc(N=C=S)c2)c1; 95.8
N=C(Nc1ccc(I)cc1)NC1C2CC3CC(C2)CC1C3 (configuration not stated); 102
CCC[C@H](N[C@@H](C)C(=O)N1[C@H](C(=O)O)C[C@@H]2CCCC[C@@H]21)C(=O)O; 98.5
N#C[C@H](O[C@@H]1O[C@H](CO[C@@H]2O[C@H](CO)[C@@H](O)[C@H](O)[C@H]2O)[C@@H](O)[C@H](O)[C@H]1O)c1ccccc1; 105
O=C1NC(=O)/C(=C/c2ccc(-c3ccc(F)cc3O)o2)S1; 101
Cn1c([N+](=O)[O-])cnc1COC(N)=O; 97.9
NCCC(Oc1ccc(C(F)(F)F)cc1)c1ccccc1 (configuration not stated); 102
COC(=O)/C=C/c1cc(O)ccc1O; 103
N#Cc1c(-c2ccccc2)cc(-c2cc(Br)ccc2O)[nH]c1=O; 96.3
CCN(CC)CC(=O)Nc1c(C)cccc1C; 105
O=C(NC1(c2ccccc2)CC1)c1c(CN2CCC(N3CCCCC3)CC2)c(-c2cccc(C(F)(F)F)c2)nc2cc(Br)ccc12; 95.1
CC(C)(C)NCc1cc(Nc2ccnc3cc(Cl)ccc23)c2c(c1O)CCCC2 [naphthoquine-phosphate]; 96.6
Fc1ccc(C(OCCN2CCN(CCCc3ccccc3)CC2)c2ccc(F)cc2)cc1; 102
c1ccc2nc(C3=NCCN3)ccc2c1; 98.8
O=C(c1ccc(F)cc1)C1CCN(CCn2c(=O)[nH]c3ccccc3c2=O)CC1; 98.3
CC(N)CCCC(C)(C)O (configuration not stated); 97.7
CN(C)CCCN1c2ccccc2CCc2ccccc21; 103
NC1(C(=O)O)CC1; 96
N=C(N)NCCCC[C@@H]1NC(=O)CCSSC[C@@H](C(N)=O)NC(=O)[C@@H]2CCCN2C(=O)[C@H](Cc2c[nH]c3ccccc23)NC(=O)[C@H](CC(=O)O)NC(=O)CNC1=O [eptifibatide]; 97.4
Clc1ccc2c(c1)N=C(N1CCNCC1)c1ccccc1N2; 103
C[N+]1(C)CCC(OC(=O)C(O)(c2ccccc2)C2CCCC2)C1 (configuration not stated) [glycopyrrolate]; 102
CCc1ccc(OCc2ccccc2C(=O)Nc2ccc3nc(C)cc(N)c3c2)cc1; 99.2
CC(=O)CC(=O)O [lithium-acetoacetate]; 101
C[N+](C)(CCOc1ccccc1)Cc1ccccc1 [bephenium-hydroxynaphthoate]; 99.4
COc1ccc2[nH]c([S@@+]([O-])Cc3ncc(C)c(OC)c3C)nc2c1; 102

====

Test system: U2OS
Assay: cell viability relative to DMSO; higher = less toxic
Conditions: 72 h; 1000 nM
measurementKind: cell viability

Cc1nccc2c1[nH]c1ccccc12; 97.5%
C/C(=C\C(=O)OCCCCCCCCC(=O)O)C[C@@H]1OC[C@H](C[C@@H]2O[C@H]2[C@@H](C)[C@H](C)O)[C@@H](O)[C@H]1O; 94.7%
Cc1ccccc1C(OCCN(C)C)c1ccccc1 (centres undefined); 97.5%
CCCCCCC[N+](CC)(CC)CCCCc1ccc(Cl)cc1; 93%
C[C@]12CC[C@H]3[C@@H](CCC4=CC(=O)CC[C@@H]43)[C@@H]1CC[C@@H]2O; 96.5%
O=C(NCC1(N2CCN(c3ccccc3)CC2)CCOCC1)c1cccnc1Sc1ccccc1; 98.9%
COc1c(C)c2c(c(O)c1C/C=C(\C)CCC(=O)O)C(=O)OC2; 62.6%
N#Cc1c(-c2ccccc2)cc(-c2cc(Br)ccc2O)[nH]c1=O; 97.6%
O=C(NO)c1cnc(N2CCN(S(=O)(=O)c3ccc4ccccc4c3)CC2)nc1; 69.3%

====

Each entry below carries its recorded drug sensitivity score.
System: Caco-2
Assay: drug sensitivity score (DSS) for viability; higher = more toxic; extreme values may be limits of the assay
Conditions: 72 h
measurementKind: drug sensitivity score

N=C(N)c1ccc(/C=C/c2ccc(C(=N)N)cc2O)cc1 [hydroxystilbamidine]; 0
COC(=O)CN1CN(c2ccccc2)C2(CCN(Cc3cccc4ccccc34)CC2)C1=O; 0
CC(=O)OCC1=C(C(=O)O)N2C(=O)[C@@H](NC(=O)CCCC(N)C(=O)O)C2SC1 (stereo partly specified); 0
C[N+]1(C)[C@@H]2CC[C@H]1C[C@@H](OC(=O)C(O)c1ccccc1)C2 (stereo partly specified) [homatropine-methylbromide]; 0.2
O=c1[nH]cc(F)c(=O)[nH]1; 1.4
S=C=Nc1ccc(N=C=S)cc1 [bitoscanate]; 0
Nc1ccn([C@@H]2O[C@H](CO)[C@@H](O)[C@@H]2O)c(=O)n1; 2.1
NS(=O)(=O)c1nn2cc(-c3ccccc3)nc2s1; 0.4
NCCC(Oc1ccc(C(F)(F)F)cc1)c1ccccc1 (stereo unspecified); 1.5
C[C@H](N/C(=N/C#N)Nc1cccc2ncccc12)c1ccccc1; 0
CS(=O)(=O)Nc1c(O)ccc2c1CCC[C@H]2C1=NCCN1; 0
COc1ccccc1C(=O)Nc1cccc(NC(=O)c2cccc(C)c2)c1; 0.3
Cn1cncc1[C@@](N)(c1ccc(Cl)cc1)c1ccc2c(c1)c(-c1cccc(Cl)c1)cc(=O)n2C; 7.8
CC1(C)NC(=O)N(c2ccc([N+](=O)[O-])c(C(F)(F)F)c2)C1=O [nilutamide]; 0
c1cc2c(cc1C1CCCCC1)c1c3n2CCNC3CCC1 (stereo unspecified); 5.4
Cc1cc(C(C)(C)C)c(O)c(C)c1CC1=NCCN1; 0.9
OCc1cncc(F)c1; 0
C/C(=C(\CCOP(=O)(O)O)SC(=O)c1ccccc1)N(C=O)Cc1cnc(C)nc1N; 0
N[C@@H]1CONC1=O; 0
CCCCCCC[N+](CC)(CC)CCCCc1ccc(Cl)cc1; 1.9
C[C@]12CCC(=O)C=C1[C@@H]1C[C@@H]1[C@H]1[C@@H]3[C@@H]4C[C@@H]4[C@@]4(CCC(=O)O4)[C@@]3(C)CC[C@@H]12; 0
O=C(OC(C(F)(F)F)C(F)(F)F)N1CCC(C(O)(c2ccc3c(c2)OCO3)c2ccc3c(c2)OCO3)CC1; 0
CN1CCN(c2c(F)cc3c(=O)c(C(=O)O)cn(CCF)c3c2F)CC1; 0
O=C1NC(=O)/C(=C/c2ccc3nccc(-c4ccncc4)c3c2)S1; 4.2
CC1=C(/C=C/C(C)=C/C=C/C(C)=C/CO)C(C)(C)CCC1; 0
C[N+](C)(CCOc1ccccc1)Cc1ccccc1 [bephenium-hydroxynaphthoate]; 0
Oc1ccc2c(c1)CC[C@H](c1ccccc1)[C@@H]2c1ccc(OCCN2CCCC2)cc1; 2
CCN1CCCC1CNC(=O)c1cc(S(=O)(=O)CC)c(N)cc1OC (stereo unspecified) [amisulpride]; 0
CC1(C)S[C@@H]2[C@H](NC(=O)[C@H](C(=O)O)c3ccsc3)C(=O)N2[C@H]1C(=O)O; 0
CC1CCN(C(c2ccc(F)cc2)c2ccc(C(C)C(=O)O)cc2-c2ccc(C(F)(F)F)cc2)CC1 (stereo unspecified); 0.3
C#Cc1cccc(Nc2ncnc3cc4c(cc23)OCCOCCOCCO4)c1; 0.8
CCCCc1nc2cc(/C=C/C(=O)NO)ccc2n1CCN(CC)CC; 12.9
Cc1cc2c(cc1C(F)(F)F)N(C(=O)Nc1ccc(Oc3cccnc3C)nc1)CC2; 0
O=c1cccc2n1C[C@H]1C[C@@H]2CN(CCN2C[C@@H]3C[C@H](C2)c2cccc(=O)n2C3)C1; 0
O=C(c1ccc(Nc2nccc(-c3cc4ccccc4s3)n2)cc1)N1CCC(N2CCCC2)CC1; 8.2
CC(C)c1cc(C(=O)N2Cc3ccc(CN4CCN(C)CC4)cc3C2)c(O)cc1O; 13.1
